# EXPERIMENTAL TARGET: LKB1 (Homo sapiens, UniProt Q15831+Q7RTN6)
# Sequence (Q15831 1-433): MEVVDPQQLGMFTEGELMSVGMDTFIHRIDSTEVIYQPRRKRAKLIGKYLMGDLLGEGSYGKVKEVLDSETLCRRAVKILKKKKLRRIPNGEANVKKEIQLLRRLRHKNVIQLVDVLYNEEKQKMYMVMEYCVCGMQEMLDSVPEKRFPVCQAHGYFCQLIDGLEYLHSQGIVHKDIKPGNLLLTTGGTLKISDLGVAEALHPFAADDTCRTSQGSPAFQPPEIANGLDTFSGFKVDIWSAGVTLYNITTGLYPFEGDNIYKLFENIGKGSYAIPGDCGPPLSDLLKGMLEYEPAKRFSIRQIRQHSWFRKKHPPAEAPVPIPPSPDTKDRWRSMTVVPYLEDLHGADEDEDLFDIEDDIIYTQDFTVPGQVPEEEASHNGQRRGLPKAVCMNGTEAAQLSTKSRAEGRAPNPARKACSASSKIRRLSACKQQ
# Sequence (Q7RTN6 1-431): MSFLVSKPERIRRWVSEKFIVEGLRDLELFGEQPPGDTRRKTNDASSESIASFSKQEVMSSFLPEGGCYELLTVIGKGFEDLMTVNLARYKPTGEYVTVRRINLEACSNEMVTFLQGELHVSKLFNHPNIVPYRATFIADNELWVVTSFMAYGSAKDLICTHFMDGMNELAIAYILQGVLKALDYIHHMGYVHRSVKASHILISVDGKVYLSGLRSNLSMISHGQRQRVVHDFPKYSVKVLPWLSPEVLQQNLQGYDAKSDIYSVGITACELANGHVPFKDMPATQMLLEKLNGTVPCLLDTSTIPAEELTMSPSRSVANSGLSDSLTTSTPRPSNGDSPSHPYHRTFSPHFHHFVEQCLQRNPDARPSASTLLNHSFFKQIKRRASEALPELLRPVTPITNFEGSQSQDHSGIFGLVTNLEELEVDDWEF
# Sequence (Q9Y376 1-341 partner): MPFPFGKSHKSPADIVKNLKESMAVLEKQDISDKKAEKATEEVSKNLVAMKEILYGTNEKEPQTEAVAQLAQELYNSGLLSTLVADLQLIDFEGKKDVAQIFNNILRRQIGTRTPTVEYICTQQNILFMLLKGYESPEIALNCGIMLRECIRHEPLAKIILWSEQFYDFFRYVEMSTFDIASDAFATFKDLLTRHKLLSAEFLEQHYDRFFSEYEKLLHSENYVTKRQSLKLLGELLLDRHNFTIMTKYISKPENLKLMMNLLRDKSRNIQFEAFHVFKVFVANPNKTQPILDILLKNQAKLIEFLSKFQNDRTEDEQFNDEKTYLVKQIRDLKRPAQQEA
# ASSAY REMARKS: in vitro LKB1 functional activity
# Format: biochemical
# EXPERIMENTAL CONDITIONS: APA analogs
MEASURED ENDPOINT: LKB1 % Act. Increase

                                   molecule     measured_endpoint          reading
0  COP(=O)(OC)C(C)S(=O)(=O)c1ccc(NC(=O)c2nc(-c3ccc(C)cc3)cnc2N)cc1 (stereo not shown)  LKB1 % Act. Increase     A (A=>4000%)
1  Cc1ccc(-c2cnc(N)c(C(=O)Nc3ccc(P(=O)(O)O)cc3)n2)cc1  LKB1 % Act. Increase  C (C=199-1000%)
2  CC(=O)NS(=O)(=O)c1ccc(NC(=O)c2nc(-c3ccc(C4CCCN4)cc3)cnc2N)cc1 (stereo not shown)  LKB1 % Act. Increase     D (D=<1000%)
3  COP(=O)(CS(=O)(=O)c1ccc(NC(=O)c2nc(-c3cc(F)ccc3C#N)cnc2N)cc1)OC  LKB1 % Act. Increase     D (D=<1000%)
4  Cc1ccc(-c2cnc(N)c(C(=O)Nc3ccc(S(C)(=O)=O)cc3)n2)cc1  LKB1 % Act. Increase  C (C=199-1000%)

Short answer please: LKB1 % Act. Increase, LKB1 (Homo sapiens, UniProt Q15831+Q7RTN6), entry CCO[P@@](=O)(CC)CS(=O)(=O)c1ccc(NC(=O)c2nc(-c3ccc(C)cc3)cnc2N)cc1 B (B=399-2000%)

Also check Cc1ccc(-c2cnc(N)c(C(=O)Nc3ccc(S(N)(=O)=O)nc3)n2)cc1 D (D=<1000%)
